Reported values of MIC for individual entries
- System: Escherichia coli
- assay: Antibiogram of clinical isolate
- Type: cell-based
- experimental context: Escherichia coli; multi-drug resistant veterinary clinical isolate; read-out: MIC

CCN1CCN(c2cc3c(cc2F)c(=O)c(C(=O)O)cn3C2CC2)CC1 | > 18 µg/mL
CC(=O)OCC1=C(C(=O)O)N2C(=O)[C@@H](NC(=O)Cc3cccs3)[C@H]2SC1 | > 101 µg/mL

Lookup: Return reported MIC; argument: CN(C)[C@@H]1C(O)=C(C(N)=O)C(=O)[C@@]2(O)C(O)=C3C(=O)c4c(O)cccc4[C@@](C)(O)[C@H]3C[C@@H]12
Found: 16 µg/mL
